molecular target: purified HLA molecules (corresponding predicted allele); experiment: MHC peptide-binding assay, summary over alleles; parameters: species or system human; conditions: allele A*2402
Ends that are not written are not given here.
Overview of reported IC50 across a group of sequences:
parameter: IC50 (µM)

- LWEGSPGKF: 6.17
- QYIFTGQPL: 0.271

----------
target: purified HLA molecules (corresponding predicted allele); test: MHC peptide-binding assay, summary over alleles; set-up: species or system human; settings: allele B*5801
pIC50: −log10 of the molar value.
parameter: pIC50

* CC[C@H](C)[C@H](NC(=O)[C@@H]1CCCN1C(=O)CNC(=O)[C@@H](NC(=O)[C@H](C)N)[C@@H](C)O)C(=O)N[C@@H](CO)C(=O)N[C@H](C(=O)N[C@@H](CC(C)C)C(=O)N[C@@H](Cc1c[nH]c2ccccc12)C(=O)O)[C@@H](C)O | 9.00
* CSCC[C@H](NC(=O)[C@H](CCCCN)NC(=O)[C@H](CC(C)C)NC(=O)[C@@H](NC(=O)[C@@H](N)CCCNC(=N)N)C(C)C)C(=O)N[C@H](C(=O)N[C@@H](CCC(=O)O)C(=O)N1CCC[C@H]1C(=O)N[C@@H](Cc1c[nH]c2ccccc12)C(=O)O)C(C)C | 9.00
* CC[C@H](C)[C@H](NC(=O)[C@@H]1CCCN1C(=O)CNC(=O)[C@@H](NC(=O)[C@H](C)N)[C@@H](C)O)C(=O)N[C@@H](CC(C)C)C(=O)N[C@H](C(=O)N[C@@H](CC(C)C)C(=O)N[C@@H](Cc1c[nH]c2ccccc12)C(=O)O)[C@@H](C)O | 7.89
* CC[C@H](C)[C@H](N)C(=O)N[C@@H](CS)C(=O)N[C@@H](CO)C(=O)N[C@@H](C)C(=O)N[C@H](C(=O)N1CCC[C@H]1C(=O)N[C@H](C(=O)N[C@@H](Cc1c[nH]cn1)C(=O)N[C@@H](Cc1c[nH]c2ccccc12)C(=O)O)C(C)C)C(C)C | 8.22
